system: 677734-321-R-J1-PDC complex spheroid viability; assay: Anticancer human tumor 677734-321-R-J1-PDC patient-derived soft tissue sarcoma cell line growth inhibition [POLQ]; conditions: second compound 3.16 µM; first compound 1 µM; active means viability on the fitted dose curve at most 10% of control; inactive means the rest
The reply should name one outcome from active, inactive

Here's what some known entries look like.
molecule	classAssignment
COc1ccc([C@@H](O)c2cc(-c3ncnc4cc(N5CCOCC5)ccc34)c(F)cc2Cl)nn1 + Cc1cccc(N(C)C(=O)C2C(O)CCN2c2nc(C)cc(C(F)(F)F)c2C#N)c1	inactive
COc1cccc(OCCCN)c1-c1cc(Nc2cnc(C#N)cn2)n[nH]1 + COC1C(OC(N)=O)C(O)C(Oc2ccc3c(O)c(NC(=O)c4ccc(O)c(CC=C(C)C)c4)c(=O)oc3c2C)OC1(C)C	inactive
C=CC(=O)N1CCN(c2nc(=O)n(-c3c(C)ccnc3C(C)C)c3nc(-c4c(O)cccc4F)c(F)cc23)C(C)C1 (stereo not given) + Nc1ccc(C#CCN(C(=O)Cc2ncc(C(F)(F)F)cc2C(F)(F)F)c2ccc(F)cc2)nn1	inactive
C=CCn1c(=O)c2cnc(Nc3ccc(N4CCN(C)CC4)cc3)nc2n1-c1cccc(C(C)(C)O)n1 + COC1C(OC(N)=O)C(O)C(Oc2ccc3c(O)c(NC(=O)c4ccc(O)c(CC=C(C)C)c4)c(=O)oc3c2C)OC1(C)C	inactive
CCc1cc2c(N3CCc4c(cc(Cn5ccnc5)cc4-c4cn(C)nc4C(F)(F)F)C3=O)ccnc2c(OC)n1 + Nc1ccc(C#CCN(C(=O)Cc2ncc(C(F)(F)F)cc2C(F)(F)F)c2ccc(F)cc2)nn1	inactive
C#Cc1c(F)ccc2cc(O)cc(-c3ncc4c(N5CC6CCC(C5)N6)nc(OCC56CCCN5CC(F)C6)nc4c3F)c12 (stereo not given) + Nc1ccc(C#CCN(C(=O)Cc2ncc(C(F)(F)F)cc2C(F)(F)F)c2ccc(F)cc2)nn1	inactive

Q) Lab log entry: O=C(Nc1ccc(O)c(NS(=O)(=O)c2ccc(F)cc2)c1)c1ccc(-c2ccccc2)cc1 + COC1C(OC(N)=O)C(O)C(Oc2ccc3c(O)c(NC(=O)c4ccc(O)c(CC=C(C)C)c4)c(=O)oc3c2C)OC1(C)C — outcome as called in the assay?
A) inactive

Q) Tell me the assay call for CCCS(=O)(=O)Nc1ccc(F)c(C(=O)c2c[nH]c3ncc(-c4ccc(Cl)cc4)cc23)c1F + COC1C(OC(N)=O)C(O)C(Oc2ccc3c(O)c(NC(=O)c4ccc(O)c(CC=C(C)C)c4)c(=O)oc3c2C)OC1(C)C please.
A) inactive

Q) Kindly provide the recorded test outcome for the following molecule: COc1cccc2c1C(=O)c1c(O)c3c(c(O)c1C2=O)CC(O)(C(=O)CO)CC3OC1CC(N)C(O)C(C)O1 (stereo not given) + Nc1ccc(C#CCN(C(=O)Cc2ncc(C(F)(F)F)cc2C(F)(F)F)c2ccc(F)cc2)nn1
A) active

Q) Could you please tell me the result logged for CCCS(=O)(=O)Nc1ccc(F)c(C(=O)c2c[nH]c3ncc(-c4ccc(Cl)cc4)cc23)c1F + Cc1cccc(N(C)C(=O)C2C(O)CCN2c2nc(C)cc(C(F)(F)F)c2C#N)c1 in this assay?
A) inactive

----------
// viability, T/C lookup, one value per entry
system: 677734-321-R-J1-PDC complex spheroid viability; experiment: Anticancer human tumor 677734-321-R-J1-PDC cell line growth inhibition [POLQ]; details: second compound 10 µM; first compound 0.0316 µM; hits give low values;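 further: spheroids exposed to compounds for one week; 100% = vehicle DMSO treated spheroids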
Numeric only. Scale: %

Answered examples (3):
compound	experimentalTarget	observable	unitOfMeasurement	dataValue
Nc1ccn(C2OC(CO)C(O)C2(F)F)c(=O)n1 (stereo not given) + COC1C(OC(N)=O)C(O)C(Oc2ccc3c(O)c(NC(=O)c4ccc(O)c(CC=C(C)C)c4)c(=O)oc3c2C)OC1(C)C	677734-321-R-J1-PDC complex spheroid viability	viability, T/C	%	39.1
CCc1cc2c(N3CCc4c(cc(Cn5ccnc5)cc4-c4cn(C)nc4C(F)(F)F)C3=O)ccnc2c(OC)n1 + COC1C(OC(N)=O)C(O)C(Oc2ccc3c(O)c(NC(=O)c4ccc(O)c(CC=C(C)C)c4)c(=O)oc3c2C)OC1(C)C	677734-321-R-J1-PDC complex spheroid viability	viability, T/C	%	112
COc1ccc([C@@H](O)c2cc(-c3ncnc4cc(N5CCOCC5)ccc34)c(F)cc2Cl)nn1 + COC1C(OC(N)=O)C(O)C(Oc2ccc3c(O)c(NC(=O)c4ccc(O)c(CC=C(C)C)c4)c(=O)oc3c2C)OC1(C)C	677734-321-R-J1-PDC complex spheroid viability	viability, T/C	%	111

Q) Lab note: need viability, T/C with 677734-321-R-J1-PDC complex spheroid viability for entry CCc1cc2c(N3CCc4c(cc(Cn5ccnc5)cc4-c4cn(C)nc4C(F)(F)F)C3=O)cc(C)nc2c(OC)n1 + Nc1ccc(C#CCN(C(=O)Cc2ncc(C(F)(F)F)cc2C(F)(F)F)c2ccc(F)cc2)nn1 , please look it up.
A) 110

Q) Query viability, T/C on 677734-321-R-J1-PDC complex spheroid viability for CCCS(=O)(=O)Nc1ccc(F)c(C(=O)c2c[nH]c3ncc(-c4ccc(Cl)cc4)cc23)c1F + COC1C(OC(N)=O)C(O)C(Oc2ccc3c(O)c(NC(=O)c4ccc(O)c(CC=C(C)C)c4)c(=O)oc3c2C)OC1(C)C
A) 107

Q) For the record C#Cc1c(F)ccc2cc(O)cc(-c3ncc4c(N5CC6CCC(C5)N6)nc(OCC56CCCN5CC(F)C6)nc4c3F)c12 (stereo not given) + COC1C(OC(N)=O)C(O)C(Oc2ccc3c(O)c(NC(=O)c4ccc(O)c(CC=C(C)C)c4)c(=O)oc3c2C)OC1(C)C , what value of viability, T/C is listed for 677734-321-R-J1-PDC complex spheroid viability?
A) 112

Q) viability, T/C of O=c1[nH]cc(F)c(=O)[nH]1 + Cc1cccc(N(C)C(=O)C2C(O)CCN2c2nc(C)cc(C(F)(F)F)c2C#N)c1 on 677734-321-R-J1-PDC complex spheroid viability?
A) 104

Q) Record lookup: for 677734-321-R-J1-PDC complex spheroid viability, what viability, T/C belongs to Cn1ncnc1[C@H]1c2n[nH]c(=O)c3cc(F)cc(c23)N[C@@H]1c1ccc(F)cc1 + Nc1ccc(C#CCN(C(=O)Cc2ncc(C(F)(F)F)cc2C(F)(F)F)c2ccc(F)cc2)nn1 ?
A) 97.9

Q) Form entry - test system: 677734-321-R-J1-PDC complex spheroid viability; read-out: viability, T/C; compound: Nc1ccn(C2OC(CO)C(O)C2(F)F)c(=O)n1 (stereo not given) + Nc1ccc(C#CCN(C(=O)Cc2ncc(C(F)(F)F)cc2C(F)(F)F)c2ccc(F)cc2)nn1
A) 87.1

Q) What viability, T/C appears in the records for this compound with 677734-321-R-J1-PDC complex spheroid viability? CC(C)n1c(=O)n(C)c2cnc3cc(F)c(-c4ccc(OCCCN5CCCCC5)nc4)cc3c21 + COC1C(OC(N)=O)C(O)C(Oc2ccc3c(O)c(NC(=O)c4ccc(O)c(CC=C(C)C)c4)c(=O)oc3c2C)OC1(C)C
A) 109

Q) Give the reported viability, T/C for COc1cc2cc(C(=O)CCC(=O)O)sc2cc1OC + COC1C(OC(N)=O)C(O)C(Oc2ccc3c(O)c(NC(=O)c4ccc(O)c(CC=C(C)C)c4)c(=O)oc3c2C)OC1(C)C (system: 677734-321-R-J1-PDC complex spheroid viability).
A) 112

Q) State its viability, T/C on 677734-321-R-J1-PDC complex spheroid viability: CC[C@@]1(O)C(=O)OCc2c1cc1n(c2=O)Cc2cc3c(CN(C)C)c(O)ccc3nc2-1 + COC1C(OC(N)=O)C(O)C(Oc2ccc3c(O)c(NC(=O)c4ccc(O)c(CC=C(C)C)c4)c(=O)oc3c2C)OC1(C)C
A) 45.6

Q) API: value(readout= viability, T/C, system= 677734-321-R-J1-PDC complex spheroid viability, query= CC[C@@]1(O)C(=O)OCc2c1cc1n(c2=O)Cc2cc3c(CN(C)C)c(O)ccc3nc2-1 + Cc1cccc(N(C)C(=O)C2C(O)CCN2c2nc(C)cc(C(F)(F)F)c2C#N)c1 )
A) 39.8

Q) # returns recorded viability, T/C (system: 677734-321-R-J1-PDC complex spheroid viability) for CC1COCCN1c1cc(-c2ccnn2C)c2ccnc(-c3ccn[nH]3)c2n1 (stereo not given) + Nc1ccc(C#CCN(C(=O)Cc2ncc(C(F)(F)F)cc2C(F)(F)F)c2ccc(F)cc2)nn1
A) 82.8

Q) // lookup viability, T/C | system=677734-321-R-J1-PDC complex spheroid viability | key= O=C(Nc1ccc(O)c(NS(=O)(=O)c2ccc(F)cc2)c1)c1ccc(-c2ccccc2)cc1 + Cc1cccc(N(C)C(=O)C2C(O)CCN2c2nc(C)cc(C(F)(F)F)c2C#N)c1
A) 76.8

Q) Enter reported viability, T/C observed with 677734-321-R-J1-PDC complex spheroid viability for COc1cccc(OCCCN)c1-c1cc(Nc2cnc(C#N)cn2)n[nH]1 + Nc1ccc(C#CCN(C(=O)Cc2ncc(C(F)(F)F)cc2C(F)(F)F)c2ccc(F)cc2)nn1
A) 6.91
